test system: PPARa:RXRa (NR concentration 270 nM, RXRa partner concentration 90 nM); assay: PBM binding z-score (relative to random genomic background probes); higher = stronger binding; sequences stand for … in GC…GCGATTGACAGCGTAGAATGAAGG
Each item that follows carries a reported PBM binding z-score.
Answer with the value's number alone.

CAGCCTAGGTCAGGGCCATTATAGGAGGAACGTT | 2.17

Which PBM binding z-score is reported for this sequence? `GCTCAGAGGACAAGGTCAGAGCTTTGTCCGTAGA`
2.37

Also `ACTAGCAGGCCAAGGGTCACTCACGATTAGTCCG` ?
4.69

###

Below is a list of entries, each paired with its recorded PBM binding z-score value.
test system: PXR homodimer (NR concentration 270 nM); assay: PBM binding z-score (relative to random genomic background probes); higher = stronger binding; sequences stand for … in GC…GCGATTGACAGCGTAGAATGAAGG
Reply briefly: the number, and no unit.

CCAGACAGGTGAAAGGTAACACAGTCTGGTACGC | -0.0519
TTACCAAGGTGAAGGTCGATGATCCCTCTGTAGA | 0.0636

Next, consider the following sequence.
Quick one: PBM binding z-score of `GGAACGAGGGCAAAGTTGAGAGCATCTGTCGACG` ?
-0.0151

###

tested on: PPARg homodimer (NR concentration 180 nM); test: PBM binding z-score (relative to random genomic background probes); higher = stronger binding; sequences stand for … in GC…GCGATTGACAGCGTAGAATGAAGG
Categories are defined by ranges of PBM binding z-score, namely bottom bin (below 0.4), middle bin (0.4 to below 1), top bin (1 or more)

Check out these entries, answers already filled in.
CCTACTGGGCCATCCAGAGGTCATTGATCATATG | top bin
CCTACTAGGTCAATGGTCAGCTAAAGCAGCTCGC | top bin

Sort `TTACCAGGGTGAGCTGAGGTCGTTGATCCAACTC` into one of the categories.
bottom bin

Next record, please: `CCGACTGGGGCGAGGTTACCATAACGCACAGCCA`
bottom bin

Follow-up entry: `CTTCAAAGTTCAACTAAGGTAACGTAAAGCACGC`
top bin

###

Recorded PBM binding z-score, one value per entry.
tested on: PPARg:RXRa 30nM:10nM, anti-RXR (NR concentration 30 nM, RXRa partner concentration 10 nM); experiment: PBM binding z-score (relative to random genomic background probes); higher = stronger binding; sequences stand for … in GC…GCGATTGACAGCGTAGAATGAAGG
Give the figure only, with no unit attached.

Below are worked cases with known answers.
GGAACGAGGGCAAGTTGATAGCCGAGTTTGATGG | -0.224
TGAATGAGGTTATAAGATCAGGAAACGTTGCAAA | 0.703
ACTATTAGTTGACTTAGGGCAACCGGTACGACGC | 0.302
CGTCCAAGGTTAGAGAGGTCAGTGAATGCCGAGT | -0.029

Fill in: PBM binding z-score of `CCGACTGGCGCAAGGTTACCATAACGCACAGCCA` is ___
-0.409

Now try `GGAACGAGGGCAAGGTTGATAGCATCTGTCGACG` .
3.62

And the next one, `CGAACTAGGTCAAGGACAGTTAATCTCCGCACGC` ?
3.78

Next: `CAGCCTAGGTCAGGGCCTGTATAGGAGGAACGTT`
-0.43

Next sequence up: `ATCTCTAGGTAAAAGTTCAGTGCATCCCGAGGAT`
7.56

Next sequence up: `CAAACTAGGTCATGAGGTCAAAGTCCGCTTCCCG`
6.58

Moving on to `CCTCGGAGGACAACAAGAGGTCAGAGCTGCCAGA`
-0.0713

Moving on to `ACTAGCAGGACAAGGGTCACTCAAGATTAGTCCG`
5.71

And what about the sequence `GTACCAAGGTGAATCGGTCGTTGATGAGTAGGCG` ?
-0.427

Follow-up entry: `TCTCGGAGGGCACGAAAGGTCAGAGCTCGACATC`
2.36

Then `TCTCGGAGGACACGAAAGGTCAGACCTCGACATC` ?
2.63

Subsequent entry: `GCGACTGGGGCATCAGCAGGTTACCGTAACTTAA`
-0.441

Then this sequence: `TCGAGTAGGTTACCAAGGGGGCATTCAGCTTTCT`
2.18

Likewise for `CAAACTAGGTCACAGAAGTCAAAGTCCGTGCGTA` ?
5.36

Can you handle `CATGCTAGGTCATGGTCAGCTAATCTACAGTATG` next?
1

Item: `CCTACGGGGCCATTCAGAGGTCATTGATCATATG`
0.193

Please do the same for `CCTCGGAGGACAATAGGAGGTCAGAGCTGCCAGA` as well.
-0.612

Also check `CCTCACGGGTCACTGACAGGTTATAGCATTTGGA`
0.625
